biological target: Endothelin-converting enzyme 1 (Homo sapiens, UniProt P42892); assay: Inhibitory activity against Endothelin-converting enzyme (ECE)
Sequence (P42892 whole entry): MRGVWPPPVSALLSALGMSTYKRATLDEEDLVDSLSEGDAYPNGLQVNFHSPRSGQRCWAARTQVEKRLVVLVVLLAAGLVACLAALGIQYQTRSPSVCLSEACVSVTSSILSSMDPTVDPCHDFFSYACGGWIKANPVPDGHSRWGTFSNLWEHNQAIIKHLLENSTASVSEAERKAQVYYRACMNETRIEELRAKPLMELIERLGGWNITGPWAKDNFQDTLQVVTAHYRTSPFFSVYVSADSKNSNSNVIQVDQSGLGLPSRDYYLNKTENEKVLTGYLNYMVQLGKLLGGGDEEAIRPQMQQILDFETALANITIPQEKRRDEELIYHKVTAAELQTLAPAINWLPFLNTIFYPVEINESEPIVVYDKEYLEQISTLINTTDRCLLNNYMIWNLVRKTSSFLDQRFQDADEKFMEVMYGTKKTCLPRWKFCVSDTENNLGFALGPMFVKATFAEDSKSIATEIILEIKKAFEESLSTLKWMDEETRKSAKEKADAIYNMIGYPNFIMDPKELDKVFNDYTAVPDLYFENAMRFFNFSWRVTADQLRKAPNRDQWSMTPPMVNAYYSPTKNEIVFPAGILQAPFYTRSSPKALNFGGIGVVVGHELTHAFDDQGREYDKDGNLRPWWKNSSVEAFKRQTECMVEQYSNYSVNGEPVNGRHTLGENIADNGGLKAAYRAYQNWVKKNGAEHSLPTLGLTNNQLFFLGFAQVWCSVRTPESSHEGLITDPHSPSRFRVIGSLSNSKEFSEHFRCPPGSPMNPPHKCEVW
pIC50: −log10 of the molar value.
Assay metric: pIC50

{"Smiles structure": "Cc1ccc(-c2ccc(S(=O)(=O)N[C@H](Cc3c[nH]c4ccccc34)C(=O)O)s2)cc1", "pIC50": "< 6.00"}

Next molecule, please.
Tell me the measured pIC50 of "O=C(O)[C@@H](Cc1c[nH]c2ccccc12)NS(=O)(=O)c1ccc(-c2nnn(-c3ccccc3)n2)cc1" , please.
< 6.00

----------
biological target: Endothelin-converting enzyme 1 (Homo sapiens); assay: Inhibitory activity against endothelin converting enzyme (ECE)
pIC50: −log10 of the molar value.
Assay metric: pIC50

Solved entries:
{"Molecule": "CSc1ccc(-c2ccc(S(=O)(=O)N[C@@H](C(=O)O)C(C)C)cc2)cc1", "Assay metric": "pIC50", "Result": "< 6.00"}
{"Molecule": "Cc1ccc(C#Cc2ccc(S(=O)(=O)N[C@H](Cc3c[nH]c4ccccc34)C(=O)O)s2)cc1 [S-3304]", "Assay metric": "pIC50", "Result": "< 6.00"}
{"Molecule": "CSc1ccc(-n2nnc(-c3ccc(S(=O)(=O)N[C@@H](C(=O)O)C(C)C)cc3)n2)cc1", "Assay metric": "pIC50", "Result": "< 6.00"}

Next molecule, please.
Tell me the measured pIC50 of "O=C(Nc1ccc(S(=O)(=O)N[C@H](Cc2c[nH]c3ccccc23)C(=O)O)cc1)c1ccc(Br)cc1" , please.
< 6.00
